System: Enterococcus faecium MDR Van A ATCC 51559
Assay explanation: MIC assay, E. faecium MDR Van A ATCC 51559
Type: cell-based
Condition notes: 24 h incubation, visual reading
Endpoint label: Minimum Inhibitory Concentration (MIC) E. faecium ATCC51559

CCCCCCCCCC(=O)NC(CCCNC(=N)N)C(=O)NC(CCCCN)C(=O)NCCCNC(=O)C1NC(=O)C2NC(=O)C(NC(=O)C3NC(=O)C(CC(N)=O)NC(=O)C(NC(=O)C(CC(C)C)NC)C(O)c4ccc(c(Cl)c4)Oc4cc3cc(c4OC3OC(CO)C(O)C(O)C3OC3CC(C)(N)C(O)C(C)O3)Oc3ccc(cc3Cl)C2O)c2ccc(O)c(c2)-c2c(O)cc(O)cc21 (centres unmarked) [MCC_005487] ... xxx (xxx = 0.1-<1)
CCCCCCCCCC(=O)N[C@@H](CCCNC(=N)N)C(=O)N[C@@H](CCCNC(=N)N)C(=O)NCCCNC(=O)[C@H]1NC(=O)[C@H]2NC(=O)[C@H](NC(=O)[C@@H]3NC(=O)[C@H](CC(N)=O)NC(=O)[C@H](NC(=O)[C@@H](CC(C)C)NC)[C@H](O)c4ccc(c(Cl)c4)Oc4cc3cc(c4O[C@@H]3O[C@H](CO)[C@@H](O)[C@H](O)[C@H]3O[C@H]3C[C@](C)(N)[C@H](O)[C@H](C)O3)Oc3ccc(cc3Cl)[C@H]2O)c2ccc(O)c(c2)-c2c(O)cc(O)cc21 [MCC_005482] ... xx (xx = 1-4)
CNC(=O)C(CCCCNC(=O)C1NC(=O)C2NC(=O)C(NC(=O)C3NC(=O)C(CC(N)=O)NC(=O)C(NC(=O)C(CC(C)C)NC)C(O)c4ccc(c(Cl)c4)Oc4cc3cc(c4OC3OC(CO)C(O)C(O)C3OC3CC(C)(N)C(O)C(C)O3)Oc3ccc(cc3Cl)C2O)c2ccc(O)c(c2)-c2c(O)cc(O)cc21)NC(=O)C(CCCCN)NC(=O)C(CCCCN)NC(=O)CCCCCCCCCCCc1ccccc1 (centres unmarked) [MCC_000511] ... xxx (xxx = 0.1-<1)
CCCCCCCC(=O)N[C@@H](CCCCN)C(=O)N[C@@H](CCCCN)C(=O)NCCCNC(=O)[C@H]1NC(=O)[C@H]2NC(=O)[C@H](NC(=O)[C@@H]3NC(=O)[C@H](CC(N)=O)NC(=O)[C@H](NC(=O)[C@@H](CC(C)C)NC)[C@H](O)c4ccc(c(Cl)c4)Oc4cc3cc(c4O[C@@H]3O[C@H](CO)[C@@H](O)[C@H](O)[C@H]3O[C@H]3C[C@](C)(N)[C@H](O)[C@H](C)O3)Oc3ccc(cc3Cl)[C@H]2O)c2ccc(O)c(c2)-c2c(O)cc(O)cc21 [MCC_005196] ... xx (xx = 1-4)

From: patent US10947271B2
